# Study system: HLA-A*23:01
# Protocol description: IEDB peptide-MHC binding, purified MHC/competitive/fluorescence; filed as Kd, often an IC50 or EC50 that approximates it; bounds were set here for any values at or beyond the usual limits of such assays
# Experimental conditions: source organism: Plasmodium yoelii yoelii
pKd: −log10 of the molar value.

Polymer sequence	Study system	pKd
KPPRGVLLY	HLA-A*23:01	≤ 4.70

* * *

# Study system: HLA-A*29:02
# Protocol description: IEDB peptide-MHC binding, purified MHC/competitive/radioactivity; filed as Kd, often an IC50 or EC50 that approximates it; bounds were set here for any values at or beyond the usual limits of such assays
# Experimental conditions: source organism: Mammarenavirus guanaritoense
Response field label: string, one of Fulfilled (Kd strictly below 1 µM) or Not fulfilled.

Polymer sequence	Qualitative label
RVGLYGLLFY	Fulfilled
LWPFIRINNL	Not fulfilled
HTNFESFTV	Not fulfilled
HLSRTVVYSY	Not fulfilled
FLDGVNLVA	Not fulfilled

* * *

# Study system: HLA-B*15:01
# Protocol description: IEDB peptide-MHC binding, purified MHC/competitive/fluorescence; filed as Kd, often an IC50 or EC50 that approximates it; bounds were set here for any values at or beyond the usual limits of such assays
# Experimental conditions: source organism: Entamoeba histolytica HM-1:IMSS
pKd: −log10 of the molar value.
Metric name: pKd

Polymer sequence	Metric name	Measurement
RSLVCLAPK	pKd	≤ 4.70

* * *

# Study system: HLA-A*02:01
# Protocol description: IEDB peptide-MHC binding, purified MHC/competitive/radioactivity; filed as Kd, often an IC50 or EC50 that approximates it; bounds were set here for any values at or beyond the usual limits of such assays
# Experimental conditions: source organism: Dengue virus 2 Thailand/NGS-C/1944
pKd: −log10 of the molar value.
Metric name: pKd

Polymer sequence	Metric name	Measurement
LMMTTIGIV	pKd	8.23

* * *

# Study system: HLA-A*26:01
# Protocol description: IEDB peptide-MHC binding, purified MHC/competitive/radioactivity; filed as Kd, often an IC50 or EC50 that approximates it; bounds were set here for any values at or beyond the usual limits of such assays
# Experimental conditions: source organism: SARS coronavirus Tor2

Polymer sequence	Relation qualifier	Kd (µM)
GAEHVDTSY	=	2.45
QWNLVIGFLF	≥	69.7
DSSQGSEYDY	=	7.27
ATVAYFNMVY	=	0.979
AYATAQEAY	≥	43.1
AYMLFTKFFY	=	0.0835
TQDLFLPFY	=	16.8
TMADLVYAL	≥	77.9
TCDWTNAGDY	≥	25
CKSKNPLLY	≥	81.5
MYLKLRSETL	=	7.59

* * *

# Study system: HLA-A*11:01
# Protocol description: IEDB peptide-MHC binding, purified MHC/direct/fluorescence; filed as Kd, often an IC50 or EC50 that approximates it; bounds were set here for any values at or beyond the usual limits of such assays
# Experimental conditions: source organism: Influenza A virus (A/Viet Nam/HN/2004(H5N1))

Polymer sequence	Kd
GTFGPVHFR	1.6 nM

* * *

# Study system: HLA-B*57:01
# Protocol description: IEDB peptide-MHC binding, purified MHC/competitive/radioactivity; filed as Kd, often an IC50 or EC50 that approximates it; bounds were set here for any values at or beyond the usual limits of such assays
# Experimental conditions: source organism: Dengue virus 1 Brazil/97-11/1997

Polymer sequence	Unit string	Kd
MSSEGAWKQI	nM	231

* * *

# Study system: HLA-A*68:02
# Protocol description: IEDB peptide-MHC binding, purified MHC/competitive/radioactivity; filed as Kd, often an IC50 or EC50 that approximates it; bounds were set here for any values at or beyond the usual limits of such assays
# Experimental conditions: source organism: Dengue virus 3 Martinique/1243/1999
Listing of entries alongside the reported Kd.

Polymer sequence	Unit string	Kd
MTTEDMLTV	nM	19.1
MTATPPGTA	nM	35.2
STANVSLAAI	nM	2.12
SAYTALFSGV	nM	9.19

* * *

# Study system: HLA-B*83:01
# Protocol description: IEDB peptide-MHC binding, purified MHC/competitive/fluorescence; filed as Kd, often an IC50 or EC50 that approximates it; bounds were set here for any values at or beyond the usual limits of such assays
# Experimental conditions: source organism: Entamoeba histolytica HM-1:IMSS
pKd: −log10 of the molar value.

Polymer sequence	pKd
MPYHGYHII	7.43

* * *

# Study system: HLA-A*02:01
# Protocol description: IEDB peptide-MHC binding, purified MHC/direct/fluorescence; filed as Kd, often an IC50 or EC50 that approximates it; bounds were set here for any values at or beyond the usual limits of such assays
# Experimental conditions: source organism: Orthohantavirus hantanense
pKd: −log10 of the molar value.

Polymer sequence	pKd
FMFNDLLKL	≥ 9.00

* * *

# Study system: HLA-A*02:06
# Protocol description: IEDB peptide-MHC binding, purified MHC/direct/fluorescence; filed as Kd, often an IC50 or EC50 that approximates it; bounds were set here for any values at or beyond the usual limits of such assays
# Experimental conditions: source organism: Salmonella enterica subsp. enterica serovar Typhimurium
pKd: −log10 of the molar value.

Polymer sequence	Study system	pKd
QVNDVLHSV	HLA-A*02:06	8.52

* * *

# Study system: HLA-A*02:12
# Protocol description: IEDB peptide-MHC binding, purified MHC/competitive/fluorescence; filed as Kd, often an IC50 or EC50 that approximates it; bounds were set here for any values at or beyond the usual limits of such assays
# Experimental conditions: source organism: Escherichia coli str. K-12 substr. DH10B

Polymer sequence	Kd / nM
QVIFKCVPK	68.6

* * *

# Study system: HLA-B*35:01
# Protocol description: IEDB peptide-MHC binding, purified MHC/competitive/fluorescence; filed as Kd, often an IC50 or EC50 that approximates it; bounds were set here for any values at or beyond the usual limits of such assays
# Experimental conditions: source organism: Influenza A virus (A/quail/Hong Kong/SF550/00(H6N1))
pKd: −log10 of the molar value.

Polymer sequence	pKd
VAGGTSSVY	7.96

* * *

Listing of entries alongside the reported pKd.
# Study system: HLA-A*03:01
# Protocol description: IEDB peptide-MHC binding, purified MHC/direct/fluorescence; filed as Kd, often an IC50 or EC50 that approximates it; bounds were set here for any values at or beyond the usual limits of such assays
# Experimental conditions: source organism: Cryptosporidium parvum
pKd: −log10 of the molar value.
Metric name: pKd

Polymer sequence	Study system	Relation qualifier	Measurement
WLPWIPQLI	HLA-A*03:01	≤	4.70
RTWFHGSLY	HLA-A*03:01	=	7.88

* * *

# Study system: HLA-A*26:01
# Protocol description: IEDB peptide-MHC binding, purified MHC/direct/fluorescence; filed as Kd, often an IC50 or EC50 that approximates it; bounds were set here for any values at or beyond the usual limits of such assays
# Experimental conditions: source organism: Zaire ebolavirus
pKd: −log10 of the molar value.

Polymer sequence	pKd
TVIYRGTTF	6.08

* * *

# Study system: HLA-A*30:01
# Protocol description: IEDB peptide-MHC binding, purified MHC/competitive/radioactivity; filed as Kd, often an IC50 or EC50 that approximates it; bounds were set here for any values at or beyond the usual limits of such assays
# Experimental conditions: source organism: Mammarenavirus guanaritoense
pKd: −log10 of the molar value.
Listing of entries alongside the reported pKd.
Metric name: pKd

Polymer sequence	Measurement
HLSRTVVYSY	6.28
HTNFESFTV	6.74
RVGLYGLLFY	5.39

* * *

# Study system: HLA-C*15:02
# Protocol description: IEDB peptide-MHC binding, purified MHC/direct/fluorescence; filed as Kd, often an IC50 or EC50 that approximates it; bounds were set here for any values at or beyond the usual limits of such assays
# Experimental conditions: source organism: Rickettsia prowazekii str. Madrid E
pKd: −log10 of the molar value.
Metric name: pKd

Polymer sequence	Metric name	Measurement
RRNRKALWL	pKd	≤ 4.70

* * *

# Study system: HLA-A*11:01
# Protocol description: IEDB peptide-MHC binding, purified MHC/competitive/radioactivity; filed as Kd, often an IC50 or EC50 that approximates it; bounds were set here for any values at or beyond the usual limits of such assays
# Experimental conditions: source organism: Lassa virus Josiah
pKd: −log10 of the molar value.
Metric name: pKd

Polymer sequence	Metric name	Relation qualifier	Measurement
FLWTQSLRR	pKd	=	6.14
SAVIDALPR	pKd	=	6.65
RASLIPDATH	pKd	≤	4.23

* * *

# Study system: HLA-A*68:01
# Protocol description: IEDB peptide-MHC binding, purified MHC/competitive/radioactivity; filed as Kd, often an IC50 or EC50 that approximates it; bounds were set here for any values at or beyond the usual limits of such assays
# Experimental conditions: source organism: Dengue virus 2 Jamaica/1409/1983
Listing of entries alongside the reported Kd.
Metric name: Kd (nM)

Polymer sequence	Study system	Metric name	Measurement
LITGNMSFR	HLA-A*68:01	Kd	26.2
TVNPIVTEK	HLA-A*68:01	Kd	26.5
DVFFTPPEK	HLA-A*68:01	Kd	3.59
